# measured target: Bifunctional dihydrofolate reductase-thymidylate synthase (Plasmodium falciparum K1, UniProt P13922)
# Sequence (P13922 whole entry): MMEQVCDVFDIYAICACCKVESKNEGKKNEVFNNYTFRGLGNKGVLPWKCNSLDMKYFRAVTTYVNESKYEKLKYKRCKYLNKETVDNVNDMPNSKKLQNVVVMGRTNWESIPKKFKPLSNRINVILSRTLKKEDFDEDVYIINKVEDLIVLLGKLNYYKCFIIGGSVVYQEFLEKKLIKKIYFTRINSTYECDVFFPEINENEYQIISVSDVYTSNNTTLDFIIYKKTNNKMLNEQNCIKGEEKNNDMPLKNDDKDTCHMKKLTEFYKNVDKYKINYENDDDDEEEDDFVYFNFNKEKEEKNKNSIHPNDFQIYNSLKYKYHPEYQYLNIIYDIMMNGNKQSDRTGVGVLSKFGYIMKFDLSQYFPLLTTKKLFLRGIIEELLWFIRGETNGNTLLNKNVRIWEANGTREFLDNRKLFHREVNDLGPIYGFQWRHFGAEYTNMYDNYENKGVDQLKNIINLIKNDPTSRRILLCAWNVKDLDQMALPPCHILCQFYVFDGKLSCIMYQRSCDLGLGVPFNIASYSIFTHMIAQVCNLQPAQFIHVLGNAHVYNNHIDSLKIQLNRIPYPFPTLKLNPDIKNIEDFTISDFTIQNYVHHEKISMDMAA
# protocol details: Binding affinity towards wild-type dihydrofolate reductase of Plasmodium falciparum.
property label: pKi
Hey, just a heads up that pKi is the negative log base 10 of the concentration in molar.

// query Please report the recorded pKi for CC1(C)N=C(N)N=C(N)N1c1ccc(Cl)cc1 [CYCLOGUANIL] .
// result 8.82

// query Could you do the same for `COC(=O)CCCc1nc(N)nc(N)c1-c1ccccc1` , please?
// result 9.22

// query What do you get for `Nc1nc(N)c(-c2cccc(Cl)c2)c(CCCc2ccccc2)n1` ?
// result 8.92

// query What do we get for `CCc1nc(N)nc(N)c1-c1ccc2c(c1)OCO2` ?
// result 8.96

// query Another compound to check: CCc1nc(N)nc(N)c1-c1ccc(Cl)c(Cl)c1 [ETOPRINE]
// result 9.00

// query Next compound: `Nc1nc(N)c(-c2ccc(Cl)cc2)c(CCCc2ccccc2)n1`
// result 9.15

###

Assignment: determine reported Ratio for the given compounds.
# Tested on: Bifunctional dihydrofolate reductase-thymidylate synthase (Plasmodium falciparum K1), P13922 [UNDEFINED MUTATION]
# protocol details: Ratio of binding affinity for mutant (N51I+C59R+S108N+I164L) to that of wild type dihydrofolate reductase
Enter a number only.

// query Fill in the blank: the reported Ratio of NC1=NC(c2cccc(Oc3ccccc3)c2)N(c2ccc(Cl)cc2)C(N)=N1 (stereo not given) is ____.
// result 478

// query // query: `Nc1nc(N)c(-c2cccc(Cl)c2)c(CCCOC(=O)OCc2ccccc2)n1`
// result 3

// query # repeat for NC1=NC(c2cccc(Oc3cccc(C(F)(F)F)c3)c2)N(c2cccc(Cl)c2)C(N)=N1 (stereo not given)
// result 1.8

// query Cool, now `Nc1nc(N)c(-c2cccc(Cl)c2)c(CCCO)n1`
// result 6.1

// query For NC1=NC(c2cccc(Oc3ccc(Cl)cc3)c2)N(c2cccc(Cl)c2)C(N)=N1 (stereo not given) then?
// result 6.1

// query Now the same for CC(C)C1(C)N=C(N)N=C(N)N1c1cccc(Cl)c1 (stereo not given)
// result 18.1

// query Entry to check: CC1N=C(N)N=C(N)N1c1ccc(Cl)cc1 (stereo not given)
// result 592

// query Queued: `CC(=O)OCCCc1nc(N)nc(N)c1-c1cccc(Cl)c1`
// result 10.1

// query CCCC1(C)N=C(N)N=C(N)N1c1ccc(Cl)cc1 (stereo not given) ?
// result 1270

// query Follow-up item: `Nc1nc(N)c(-c2ccccc2)c(CCCOC(=O)c2ccccc2)n1`
// result 4.1

###

# measured target: Bifunctional dihydrofolate reductase-thymidylate synthase (Plasmodium falciparum K1, UniProt P13922, C59R/I164L/S108N)
# protocol details: Binding affinity towards mutant dihydrofolate reductase (C59R+S108N+I164L DHFR) of Plasmodium falciparum
property label: Ki

// query Sample `Nc1nc(N)c(-c2ccc(Cl)cc2)c(CCCc2ccccc2)n1` — what was its Ki?
// result 63 nM

// query Consider next the compound `CCc1nc(N)nc(N)c1-c1ccc(C)cc1` in the same way.
// result 88 nM

// query Same question, NC1=NC(c2cccc(Oc3ccccc3)c2)N(c2ccc(Cl)cc2)C(N)=N1 (centres undefined) this time
// result 132 nM

// query // query: `CC(=O)OCCCc1nc(N)nc(N)c1-c1ccccc1`
// result 18 nM

// query Note, next up: NC1=NC(c2cccc(Oc3cc(Cl)cc(Cl)c3)c2)N(c2cccc(Cl)c2)C(N)=N1 (centres undefined)
// result 0.6 nM

// query # repeat for `CCc1nc(N)nc(N)c1-c1ccccc1`
// result 25 nM

// query Now give it for `Cc1nc(N)nc(N)c1-c1cccc(Cl)c1` too.
// result 9.8 nM

// query What about NC1=NC(c2ccc(Oc3ccccc3)cc2)N(c2ccc(Cl)cc2)C(N)=N1 (centres undefined) ?
// result 145 nM

// query Now consider `CCc1nc(N)nc(N)c1-c1ccc2c(c1)OCO2` and answer again.
// result 121 nM

###

# measured target: Bifunctional dihydrofolate reductase-thymidylate synthase (Plasmodium falciparum K1, UniProt P13922, A16V/S108T)
# protocol details: Binding affinity towards mutant dihydrofolate reductase (A16V+S108T DHFR) of Plasmodium falciparum.
property label: log10 Ki (log10 of the value in nM)
Would you kindly interpret these values as log10 of Ki expressed in nM?

// query Reported log10 Ki, compound NC1=NC(c2cccc(Oc3ccccc3)c2)N(c2cccc(Cl)c2)C(N)=N1 (configuration not stated) : ____
// result 0.40

// query Request: NC1=NC(c2ccccc2)N(c2cccc(Cl)c2)C(N)=N1 (configuration not stated)
// result 1.02

// query Try this compound next: CCCOc1ccc(C2N=C(N)N=C(N)N2c2cccc(Cl)c2)cc1 (configuration not stated)
// result 0.97

// query Okay, and NC1=NC(c2ccc(Oc3ccccc3)cc2)N(c2ccc(Cl)cc2)C(N)=N1 (configuration not stated) ?
// result 0.58

// query Param item: NC1=NC(c2cccc(Oc3cc(Cl)cc(Cl)c3)c2)N(c2cccc(Cl)c2)C(N)=N1 (configuration not stated)
// result 0.67

// query Next: CC(C)C1(C)N=C(N)N=C(N)N1c1cccc(Cl)c1 (configuration not stated)
// result 3.34

// query Cool, now NC1=NC(c2cccc(OCCCOc3cc(Cl)c(Cl)cc3Cl)c2)N(c2cccc(Cl)c2)C(N)=N1 (configuration not stated)
// result 0.41
